Values from patent US11420958B2

target: human TLR8 (Homo sapiens (Human), UniProt Q9NR97); assay: TLR8 inhibition reporter assay (HEK-Blue, SEAP); conditions: HEK-Blue cells overexpressing human TLR8, R848 15.9 μM stimulation
Sequence (Q9NR97 27-1041): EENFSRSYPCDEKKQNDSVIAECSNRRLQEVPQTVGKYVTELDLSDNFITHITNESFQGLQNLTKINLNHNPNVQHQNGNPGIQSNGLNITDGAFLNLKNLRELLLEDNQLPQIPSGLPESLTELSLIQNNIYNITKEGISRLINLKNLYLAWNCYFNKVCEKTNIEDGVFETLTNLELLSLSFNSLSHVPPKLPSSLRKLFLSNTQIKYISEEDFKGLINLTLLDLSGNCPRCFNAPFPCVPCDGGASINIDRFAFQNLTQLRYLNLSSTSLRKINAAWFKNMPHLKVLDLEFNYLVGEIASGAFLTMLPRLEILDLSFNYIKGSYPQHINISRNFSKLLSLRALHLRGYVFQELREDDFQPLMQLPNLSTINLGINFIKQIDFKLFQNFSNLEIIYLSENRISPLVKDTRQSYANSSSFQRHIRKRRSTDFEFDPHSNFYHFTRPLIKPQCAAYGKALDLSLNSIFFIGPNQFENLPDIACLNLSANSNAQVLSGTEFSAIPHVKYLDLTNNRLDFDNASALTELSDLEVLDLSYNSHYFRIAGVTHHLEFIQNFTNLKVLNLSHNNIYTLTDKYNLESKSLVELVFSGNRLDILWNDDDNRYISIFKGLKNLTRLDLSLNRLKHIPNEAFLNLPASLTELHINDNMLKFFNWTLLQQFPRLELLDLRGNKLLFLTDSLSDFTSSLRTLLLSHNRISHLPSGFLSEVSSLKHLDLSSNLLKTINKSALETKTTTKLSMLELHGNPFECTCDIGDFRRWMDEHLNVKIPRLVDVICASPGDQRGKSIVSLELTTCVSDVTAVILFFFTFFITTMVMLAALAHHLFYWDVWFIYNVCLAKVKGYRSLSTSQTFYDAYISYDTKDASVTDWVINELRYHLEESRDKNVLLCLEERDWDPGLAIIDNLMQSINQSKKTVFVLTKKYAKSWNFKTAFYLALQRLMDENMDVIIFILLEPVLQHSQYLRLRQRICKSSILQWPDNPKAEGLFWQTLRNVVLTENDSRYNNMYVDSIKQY
EXPERIMENTAL READOUT: IC50 (nM)

Cc1cc(-c2[nH]c3ccc(-c4ccc(N5CCN(CCO)CC5)nc4)cc3c2C(C)C)cc(C)n1 :: 5.4

I = COc1ccc(-c2[nH]c3ccc(-c4cccc(C(=O)N5CCNCC5)c4)cc3c2C(C)C)cc1OC
II = COc1ccc(-c2[nH]c3ccc(-c4nnc([C@@H]5CCCNC5)o4)cc3c2CC(F)(F)F)cc1OC
Prompt line: Rank I against II by their IC50 values and give the higher one. Select an item and report its label.
Response line: II
(II: 25 nM, I: 9 nM)

###

biological target: UniProt:Q9NYK1; test: TLR7 inhibition reporter assay (HEK-Blue, SEAP); conditions: HEK-Blue cells overexpressing human TLR7, gardiquimod 7.5 μM stimulation
Sequence (Q9NYK1 27-1049): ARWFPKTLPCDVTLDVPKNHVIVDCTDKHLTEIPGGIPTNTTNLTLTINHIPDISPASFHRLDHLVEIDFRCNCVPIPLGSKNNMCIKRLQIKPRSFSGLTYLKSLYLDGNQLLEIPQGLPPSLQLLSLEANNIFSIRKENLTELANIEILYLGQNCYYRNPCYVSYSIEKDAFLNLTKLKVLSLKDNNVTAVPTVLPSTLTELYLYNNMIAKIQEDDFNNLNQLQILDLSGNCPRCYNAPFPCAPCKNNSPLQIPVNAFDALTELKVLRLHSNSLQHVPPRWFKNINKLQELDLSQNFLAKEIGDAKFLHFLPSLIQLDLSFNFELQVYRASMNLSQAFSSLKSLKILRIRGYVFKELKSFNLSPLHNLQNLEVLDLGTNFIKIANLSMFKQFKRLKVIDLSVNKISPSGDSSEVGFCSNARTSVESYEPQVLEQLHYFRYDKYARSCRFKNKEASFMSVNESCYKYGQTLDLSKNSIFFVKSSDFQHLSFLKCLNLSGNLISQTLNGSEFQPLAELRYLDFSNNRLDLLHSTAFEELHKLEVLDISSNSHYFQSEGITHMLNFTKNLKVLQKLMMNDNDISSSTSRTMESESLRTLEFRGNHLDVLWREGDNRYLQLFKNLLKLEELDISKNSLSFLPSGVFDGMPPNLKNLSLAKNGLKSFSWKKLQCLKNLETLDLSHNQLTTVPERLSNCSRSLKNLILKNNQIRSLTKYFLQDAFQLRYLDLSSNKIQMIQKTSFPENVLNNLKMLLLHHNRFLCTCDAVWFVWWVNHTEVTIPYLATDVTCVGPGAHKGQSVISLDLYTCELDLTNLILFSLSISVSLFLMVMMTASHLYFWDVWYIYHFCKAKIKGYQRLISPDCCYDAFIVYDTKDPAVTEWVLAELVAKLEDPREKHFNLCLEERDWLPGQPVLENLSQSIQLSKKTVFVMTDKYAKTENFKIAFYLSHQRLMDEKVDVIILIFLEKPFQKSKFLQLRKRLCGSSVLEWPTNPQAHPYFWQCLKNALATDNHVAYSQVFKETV
EXPERIMENTAL READOUT: IC50 (nM)

COc1ccc(-c2[nH]c3ccc(-c4cc[nH]c4)cc3c2C(C)C)cc1OC :: 305
COc1ccc(-c2[nH]c3ccc(-c4nnc(C[C@H]5CCCCN5)o4)cc3c2C(C)C)cc1OC :: 75
COc1ccc(-c2[nH]c3ccc(-c4cccc(C(=O)NC5CCN(C(C)C)CC5)c4)cc3c2C(C)C)cc1OC :: 114
COc1ccc(-c2[nH]c3ccc(-c4ccc(N5CCN(C)CC5)nc4)cc3c2C(C)C)cc1OC :: 32
Cc1cc(-c2[nH]c3ccc(-c4nnc(C(C)CN)o4)cc3c2C(C)C)ccn1 (stereo not drawn) :: 50

a = COc1ccc(-c2[nH]c3ccc(-c4nnc(CNCCS(=O)(=O)O)o4)cc3c2C(C)C)cc1OC
b = COc1ccc(-c2[nH]c3ccc(-c4ccnc(N5CCN(CCC(F)(F)F)CC5)c4)cc3c2C(C)C)cc1OC
c = COc1ccc(-c2[nH]c3ccc(-c4ncc[nH]4)cc3c2C(C)C)cc1OC
Prompt line: Put these in order: smallest IC50 first, largest last. Your reply should list the labels following the order given in the request.
Response line: c, a, b

###

Target: UniProtKB Q9NR96
Test: TLR9 inhibition reporter assay (HEK-Blue, SEAP)
Details: HEK-Blue cells overexpressing human TLR9, ODN2006 5 nM stimulation
From the text: TLR7/8/9 Inhibition Reporter Assays HEK-Blue™-cells (Invivogen) overexpressing human TLR7, TLR8 or TLR9 receptors were used for screening inhibitors of these receptors using an inducible SEAP (secreted embryonic alkaline phosphatase) reporter gene under the control of the IFN-β minimal promoter fused to five NF-κc Band AP-1-binding sites. […]
pIC50: −log10 of the molar value.
EXPERIMENTAL READOUT: pIC50

Some solved entries appear below for comparison.
COc1ccc(-c2[nH]c3ccc(-c4cccc(C(=O)NCCC5CCCN5C)c4)cc3c2CC(F)(F)F)cc1OC (stereo not drawn) :: 5.86
CNCC(=O)N1CCC(c2nnc(-c3ccc4[nH]c(-c5ccc(OC)c(OC)c5)c(C(C)C)c4c3)o2)CC1 :: 6.20

1 = Cc1cc(-c2[nH]c3ccc(-c4nnc(CCc5cccnc5)o4)cc3c2C(C)C)ccn1
2 = Cc1cc(-c2[nH]c3ccc(-c4nc(C(=O)N5CC6CNCC6C5)co4)cc3c2C(C)C)ccn1 (stereo not drawn)
Prompt line: For the two items 1 and 2 , which reports the higher pIC50 value? Reply with the label of the item you choose.
Response line: 2

###

target: human TLR9 (Homo sapiens (Human), UniProt Q9NR96); experiment: TLR9 inhibition reporter assay (HEK-Blue, SEAP); settings: HEK-Blue cells overexpressing human TLR9, ODN2006 5 nM stimulation
Sequence (Q9NR96 26-1032): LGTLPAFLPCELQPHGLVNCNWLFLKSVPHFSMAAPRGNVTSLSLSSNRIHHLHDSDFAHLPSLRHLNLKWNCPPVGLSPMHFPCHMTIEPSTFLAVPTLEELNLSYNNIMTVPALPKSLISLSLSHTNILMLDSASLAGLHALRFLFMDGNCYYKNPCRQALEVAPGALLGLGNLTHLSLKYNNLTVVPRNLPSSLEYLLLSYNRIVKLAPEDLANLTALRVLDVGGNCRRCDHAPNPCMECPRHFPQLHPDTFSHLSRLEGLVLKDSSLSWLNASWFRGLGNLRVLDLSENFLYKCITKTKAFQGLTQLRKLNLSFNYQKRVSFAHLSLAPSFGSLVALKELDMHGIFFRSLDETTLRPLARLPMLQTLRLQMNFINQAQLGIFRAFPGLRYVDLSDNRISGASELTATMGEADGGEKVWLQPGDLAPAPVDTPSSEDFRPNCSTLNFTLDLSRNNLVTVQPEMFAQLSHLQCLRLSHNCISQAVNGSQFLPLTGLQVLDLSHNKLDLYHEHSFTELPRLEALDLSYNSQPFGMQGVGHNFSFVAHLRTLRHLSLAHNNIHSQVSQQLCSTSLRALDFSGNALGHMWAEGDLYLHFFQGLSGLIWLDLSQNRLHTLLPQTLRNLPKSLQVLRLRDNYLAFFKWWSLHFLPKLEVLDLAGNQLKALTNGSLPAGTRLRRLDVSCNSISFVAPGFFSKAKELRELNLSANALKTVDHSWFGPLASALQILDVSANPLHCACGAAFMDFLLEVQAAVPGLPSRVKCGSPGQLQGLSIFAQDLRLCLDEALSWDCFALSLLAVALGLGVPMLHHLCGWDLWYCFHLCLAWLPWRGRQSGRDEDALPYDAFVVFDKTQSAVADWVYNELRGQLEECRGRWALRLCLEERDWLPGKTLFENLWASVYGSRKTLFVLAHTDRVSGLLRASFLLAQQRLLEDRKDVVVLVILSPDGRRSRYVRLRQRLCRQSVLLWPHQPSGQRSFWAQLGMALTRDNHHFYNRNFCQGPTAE
EXPERIMENTAL READOUT: IC50 (nM)

These solved cases illustrate the format of a correct answer.
Cc1cc(-c2[nH]c3ccc(-c4cc5c(s4)CNCC5)cc3c2C(C)C)cc(C)n1 :: 438
COc1ccc(-c2[nH]c3ccc(-c4cccc(N5CCN(C)CC5)c4)cc3c2C(C)C)cc1OC :: 2300
CC(C)c1c(-c2ccnc3[nH]ncc23)[nH]c2ccc(-c3nc(C(=O)N4CCCN(C)CC4)co3)cc12 :: 2080
Cc1cc(-c2[nH]c3ccc(-c4ccc(NC(=O)[C@@H]5CCNC5)nc4)cc3c2C(C)C)ccn1 :: 828
Cc1cc(-c2[nH]c3ccc(-c4cc5c(s4)CN(C(=O)C[C@H](C)O)CC5)cc3c2C(C)C)cc(C)n1 :: 32900
CC(C)c1c(-c2ccnc3[nH]ncc23)[nH]c2ccc(-c3nnc(C(=O)N4CC5CNCC5C4)o3)cc12 (centres unmarked) :: 590
COc1ccc(-c2[nH]c3ccc(-c4ccc(N5CCNCC5)nc4)cc3c2C(C)C)cc1OC :: 1220
COc1ccc(-c2[nH]c3ccc(-c4cccc(N5CCN(CC(C)C)CC5)c4)cc3c2C(C)C)cc1OC :: 10200

P = Cc1cc(-c2[nH]c3ccc(-c4nc(C(=O)NCCCN(C)C)co4)cc3c2C(C)C)cc(C)n1
Q = CCc1c(-c2ccnc(C)c2)[nH]c2ccc(-c3noc(C4CCCNC4)n3)cc12 (centres unmarked)
R = Cc1cc(-c2[nH]c3ccc(-c4ccc(C(=O)N5CCC(N(C)C)CC5)cc4)cc3c2C(C)C)ccn1
S = Cc1cc(-c2[nH]c3ccc(-c4ccn5ncnc5c4C)cc3c2C(C)C)cc(C)n1
Prompt line: # desc sort on IC50 across 4 compounds Please list the labels in the order you were asked to rank them.
Response line: S, Q, R, P
(S: 25200 nM, Q: 686 nM, R: 326 nM, P: 156 nM)

###

Target: human TLR9 (Homo sapiens (Human))
Test: TLR9 inhibition reporter assay (HEK-Blue, SEAP)
Details: HEK-Blue cells overexpressing human TLR9, ODN2006 5 nM stimulation
From the text: TLR7/8/9 Inhibition Reporter Assays HEK-Blue™-cells (Invivogen) overexpressing human TLR7, TLR8 or TLR9 receptors were used for screening inhibitors of these receptors using an inducible SEAP (secreted embryonic alkaline phosphatase) reporter gene under the control of the IFN-β minimal promoter fused to five NF-κc Band AP-1-binding sites. […]
EXPERIMENTAL READOUT: IC50 (nM)

COc1ccc(-c2[nH]c3ccc(-c4nnc(C5CCN(CC(=O)N(C)C)CC5)o4)cc3c2CC(F)(F)F)cc1OC :: 2550
COc1ccc(-c2[nH]c3ccc(-c4nnc([C@@H]5CCCNC5)o4)cc3c2CC(F)(F)F)cc1OC :: 1270
CC(C)c1c(-c2ccc3ncnn3c2)[nH]c2ccc(-c3nnc([C@@H]4CCCNC4)o3)cc12 :: 892

A = CNC(=O)CN1CCC(c2nnc(-c3ccc4[nH]c(-c5ccc(OC)c(OC)c5)c(C(C)C)c4c3)o2)CC1
B = CNCC(=O)Nc1cnc(-c2ccc3[nH]c(-c4cc(C)nc(C)c4)c(C(C)C)c3c2)cn1
C = CC(C)c1c(-c2ccc3nccn3c2)[nH]c2ccc(-c3nnc(C(=O)NCCN(C)C)o3)cc12
Prompt line: Ascending by IC50, please. Sort and list the labels as requested.
Response line: C, B, A
(C: 306 nM, B: 952 nM, A: 6100 nM)

###

target: human TLR8 (Homo sapiens (Human)); assay: TLR8 inhibition reporter assay (HEK-Blue, SEAP); settings: HEK-Blue cells overexpressing human TLR8, R848 15.9 μM stimulation
EXPERIMENTAL READOUT: IC50 (µM)

See these solved cases before continuing.
CC(C)c1c(-c2ccnc3[nH]ncc23)[nH]c2ccc(-c3nc4n(n3)CCN(C3CCN(C(C)C)CC3)C4)cc12 :: 0.0099
COc1ccc(-c2[nH]c3ccc(-c4ccc(NCC5CCN(C)C5)cc4)cc3c2C(C)C)cc1OC (stereo not shown) :: 0.0096
Cc1cc(-c2[nH]c3ccc(-c4cn5cc(C)nc5cc4F)cc3c2C(C)C)cc(C)n1 :: 0.02
CNCc1nnc(-c2ccc3[nH]c(-c4ccnc5n[nH]cc45)c(C(C)C)c3c2)o1 :: 0.044
Cc1cc(-c2[nH]c3ccc(-c4nnc(CC(C)N)o4)cc3c2C(C)C)ccn1 (stereo not shown) :: 0.0055
Cc1oc(-c2ccc3[nH]c(-c4ccnc5[nH]ncc45)c(C(C)C)c3c2)nc1C(=O)NCC1CCNC1 (stereo not shown) :: 0.109

1 = CNCCNc1ccc(-c2ccc3[nH]c(-c4ccnc(C)c4)c(C(C)C)c3c2)cn1
2 = CNCCNc1ccc(-c2ccc3[nH]c(-c4cc(C)nc(C)c4)c(C(C)C)c3c2)cn1
Prompt line: Input pair: 1 , 2 . Output: entry with lower IC50. Selection: enter the item's label.
Response line: 1

###

target: human TLR8 (Homo sapiens (Human), UniProt Q9NR97); experiment: TLR8 inhibition reporter assay (HEK-Blue, SEAP); settings: HEK-Blue cells overexpressing human TLR8, R848 15.9 μM stimulation
pIC50: −log10 of the molar value.
EXPERIMENTAL READOUT: pIC50

COc1ccc(-c2[nH]c3ccc(-c4ccc(N5CCN(C(C)C)CC5)cc4)cc3c2C(C)C)cc1OC :: 7.49
Cc1cc(-c2[nH]c3ccc(-c4ccc(NC(=O)C5CC(=O)N(C)C5)nc4)cc3c2C(C)C)ccn1 (stereo not shown) :: 8.72
CCc1c(-c2ccnc(C)c2)[nH]c2ccc(-c3noc(C4CNC4)n3)cc12 :: 7.43

P = CC(C)c1c(-c2ccnc3[nH]ncc23)[nH]c2ccc(-c3nnc(C[C@@H]4CCCN4)o3)cc12
Q = Cc1cc(-c2[nH]c3ccc(-c4ccn5ncnc5c4C)cc3c2C(C)C)cc(C)n1
Prompt line: Of P versus Q , which is the one with smaller reported pIC50? # answer = label of selected item
Response line: Q
(Q: 6.75, P: 8.77)
